Numbers sourced from ChEMBL document CHEMBL1821576.

system: HeLa; test: Cytotoxicity against human HeLa cells by MTT assay; format: functional, cell-based
Lab note: anything with IC50 below 50 µM is marked 1; values at 50 µM or higher are marked 0.

{"compound": "CCCCC(CC(=O)O[C@H](CC=C(C)C)C1=CC(=O)c2c(O)ccc(O)c2C1=O)OC(C)=O (some centres undefined)", "category": 0}
{"compound": "CC(C)=CC[C@@H](OC(=O)C1CCCOC1)C1=CC(=O)c2c(O)ccc(O)c2C1=O (some centres undefined)", "category": 0}
{"compound": "COC(C)CO[C@H](CC=C(C)C)C1=CC(=O)c2c(O)ccc(O)c2C1=O (mixture of isomers)", "category": 0}
{"compound": "CC(C)=CC[C@@H](OCCO)C1=CC(=O)c2c(O)ccc(O)c2C1=O", "category": 1}
{"compound": "CC(C)=CC[C@@H](OC(=O)C1CCOC1)C1=CC(=O)c2c(O)ccc(O)c2C1=O (some centres undefined)", "category": 0}

Regarding CC(C)=CC[C@@H](OC(=O)CC(O)c1ccccc1)C1=CC(=O)c2c(O)ccc(O)c2C1=O (mixture of isomers) , kindly confirm whether its IC50 is beneath 50 µM.
1

Can you handle CC(C)=CC[C@@H](OC(=O)c1ccoc1)C1=CC(=O)c2c(O)ccc(O)c2C1=O next?
0

Now the same for CC(=O)OCCO[C@H](CC=C(C)C)C1=CC(=O)c2c(O)ccc(O)c2C1=O
1

Then what about the compound CC[C@](C)(O)CC(=O)O[C@H](CC=C(C)C)C1=CC(=O)c2c(O)ccc(O)c2C1=O (racemic) ?
1

* * *

tested on: HeLa; experiment: Cytotoxicity against human HeLa cells by MTT assay; assay type: functional, cell-based
test_readout: IC50 (µM)
Dear colleague, please return just the value in µM, with no unit written.

{"compound": "CCC(CO[C@H](CC=C(C)C)C1=CC(=O)c2c(O)ccc(O)c2C1=O)OC(C)=O (mixture of isomers)", "IC50 (µM)": 44}
{"compound": "CC(C)=CC[C@@H](OC[C@H](C)O)C1=CC(=O)c2c(O)ccc(O)c2C1=O", "IC50 (µM)": 40.3}
{"compound": "CC(C)=CC[C@@H](OC[C@@H](C)O)C1=CC(=O)c2c(O)ccc(O)c2C1=O", "IC50 (µM)": 22.5}
{"compound": "CC(C)=CC[C@@H](OCC(C)O)C1=CC(=O)c2c(O)ccc(O)c2C1=O (mixture of isomers)", "IC50 (µM)": 24.7}

Recorded IC50 for CCC(C)(O)CC(=O)O[C@H](CC=C(C)C)C1=CC(=O)c2c(O)ccc(O)c2C1=O (mixture of isomers) , please?
25.2

Cool, now CCC(O)CO[C@H](CC=C(C)C)C1=CC(=O)c2c(O)ccc(O)c2C1=O (mixture of isomers)
28.7

* * *

tested on: DU-145; assay: Cytotoxicity against human DU145 cells by MTT assay; assay type: functional, cell-based
test_readout: pIC50
// pIC50 is dimensionless: -log10 of concentration (M)

Solved cases below.
{"compound": "CC(C)=CC[C@@H](OC(=O)C1CCCCO1)C1=CC(=O)c2c(O)ccc(O)c2C1=O (stereo partly drawn)", "pIC50": 4.61}
{"compound": "CCC(C)(O)CC(=O)O[C@H](CC=C(C)C)C1=CC(=O)c2c(O)ccc(O)c2C1=O (mixture of isomers)", "pIC50": 4.80}

I would be grateful if you could share the reported pIC50 for CC(=O)OC(C)CO[C@H](CC=C(C)C)C1=CC(=O)c2c(O)ccc(O)c2C1=O (mixture of isomers) .
4.78

Field entry: CCCC(CC(=O)O[C@H](CC=C(C)C)C1=CC(=O)c2c(O)ccc(O)c2C1=O)OC(C)=O (mixture of isomers)
4.25

Could you do the same for CC(C)=CC[C@@H](OC(=O)CC(O)c1ccccc1)C1=CC(=O)c2c(O)ccc(O)c2C1=O (mixture of isomers) , please?
4.77

Next compound up: CCCCC(O)CC(=O)O[C@H](CC=C(C)C)C1=CC(=O)c2c(O)ccc(O)c2C1=O (mixture of isomers)
4.34

Try this compound next: CCC(CO[C@H](CC=C(C)C)C1=CC(=O)c2c(O)ccc(O)c2C1=O)OC (mixture of isomers)
4.34

* * *

// IC50 lookup, one value per entry
tested on: HeLa; experiment: Cytotoxicity against human HeLa cells by MTT assay; type: functional, cell-based
Lab book: enter the figure in µM, no units written.

Solved entries:
{"compound": "CCCC(O)CC(=O)O[C@H](CC=C(C)C)C1=CC(=O)c2c(O)ccc(O)c2C1=O (mixture of isomers)", "IC50, µM": 59.3}
{"compound": "CC(C)=CC[C@@H](OC(=O)CC(C)(O)c1ccccc1)C1=CC(=O)c2c(O)ccc(O)c2C1=O (mixture of isomers)", "IC50, µM": 85.7}
{"compound": "CC[C@@](C)(O)CC(=O)O[C@H](CC=C(C)C)C1=CC(=O)c2c(O)ccc(O)c2C1=O", "IC50, µM": 17.9}
{"compound": "CC(C)=CC[C@@H](OC(=O)CC(C)(C)O)C1=CC(=O)c2c(O)ccc(O)c2C1=O [BETA-HYDROXYISOVALERYLSHIKONIN]", "IC50, µM": 55}
{"compound": "CC(=O)OC(C)CO[C@H](CC=C(C)C)C1=CC(=O)c2c(O)ccc(O)c2C1=O (mixture of isomers)", "IC50, µM": 40.1}

What value of measured IC50 is listed for CC(C)=CC[C@@H](OC(=O)CC(C)(O)C(C)C)C1=CC(=O)c2c(O)ccc(O)c2C1=O (mixture of isomers) ?
27.7

Same again, this time with CCCC(C)(O)CC(=O)O[C@H](CC=C(C)C)C1=CC(=O)c2c(O)ccc(O)c2C1=O (mixture of isomers)
72

Continue with COCCO[C@H](CC=C(C)C)C1=CC(=O)c2c(O)ccc(O)c2C1=O
62.4

What do we get for CC(C)=CC[C@@H](OC(=O)CCO)C1=CC(=O)c2c(O)ccc(O)c2C1=O ?
67.6

Then this compound: CC(C)=CC[C@@H](OC(=O)c1ccco1)C1=CC(=O)c2c(O)ccc(O)c2C1=O
80.3

And the next one, CCCC(CC(=O)O[C@H](CC=C(C)C)C1=CC(=O)c2c(O)ccc(O)c2C1=O)OC(C)=O (mixture of isomers) ?
51.2

Also check O=P1(N(CCCl)CCCl)NCCCO1 (centres undefined) [CYCLOPHOSPHAMIDE ANHYDROUS]
71.4

Would you kindly repeat that for CCCCC(C)(O)CC(=O)O[C@H](CC=C(C)C)C1=CC(=O)c2c(O)ccc(O)c2C1=O (mixture of isomers) ?
60.6

* * *

system: DU-145; experiment: Cytotoxicity against human DU145 cells by MTT assay; format: functional, cell-based
test_readout: pIC50
pIC50 (log units): -log10 of the concentration in mol/L.

{"compound": "CCC(O)(CC)CC(=O)O[C@H](CC=C(C)C)C1=CC(=O)c2c(O)ccc(O)c2C1=O", "test_readout": "pIC50", "numeric_result": 4.17}
{"compound": "COC(C)CO[C@H](CC=C(C)C)C1=CC(=O)c2c(O)ccc(O)c2C1=O (mixture of isomers)", "test_readout": "pIC50", "numeric_result": 4.78}
{"compound": "CC(C)=CC[C@@H](OCCO)C1=CC(=O)c2c(O)ccc(O)c2C1=O", "test_readout": "pIC50", "numeric_result": 5.00}

Which pIC50 is reported for this compound? CC(C)=CC[C@@H](OC(=O)CCO)C1=CC(=O)c2c(O)ccc(O)c2C1=O
4.26

Check CC(C)=CC[C@@H](OCC(C)O)C1=CC(=O)c2c(O)ccc(O)c2C1=O (mixture of isomers) too.
4.79

And what about the compound CCCCC(CC(=O)O[C@H](CC=C(C)C)C1=CC(=O)c2c(O)ccc(O)c2C1=O)OC(C)=O (stereo partly drawn) ?
4.17

Query CC(C)=CC[C@@H](OC(=O)C1CCOC1)C1=CC(=O)c2c(O)ccc(O)c2C1=O (stereo partly drawn) next
4.32

Likewise for CC(=O)OCCC(=O)O[C@H](CC=C(C)C)C1=CC(=O)c2c(O)ccc(O)c2C1=O ?
4.80

Queued: CC(C)=CC[C@@H](OC[C@@H](C)O)C1=CC(=O)c2c(O)ccc(O)c2C1=O
4.84

And what about the compound COCCO[C@H](CC=C(C)C)C1=CC(=O)c2c(O)ccc(O)c2C1=O ?
4.36

* * *

system: HeLa; assay: Cytotoxicity against human HeLa cells by MTT assay; type: functional, cell-based
test_readout: pIC50
Here pIC50 is given on a logarithmic scale as minus log10 of the concentration in mol/L.

Here are 4 molecules together with their reported answers.
{"molecule": "CCC(CO[C@H](CC=C(C)C)C1=CC(=O)c2c(O)ccc(O)c2C1=O)OC (mixture of isomers)", "numeric_result": 4.20}
{"molecule": "CCCCC(O)CC(=O)O[C@H](CC=C(C)C)C1=CC(=O)c2c(O)ccc(O)c2C1=O (mixture of isomers)", "numeric_result": 4.14}
{"molecule": "CC(C)=CC[C@@H](OC(=O)C1CCCO1)C1=CC(=O)c2c(O)ccc(O)c2C1=O (stereo partly specified)", "numeric_result": 4.77}
{"molecule": "CC(=O)OCCC(=O)O[C@H](CC=C(C)C)C1=CC(=O)c2c(O)ccc(O)c2C1=O", "numeric_result": 4.76}

Quick check: pIC50 of CCC(O)(CC)CC(=O)O[C@H](CC=C(C)C)C1=CC(=O)c2c(O)ccc(O)c2C1=O ?
4.28
